Measured apparent KD of MS2 coat protein, listed per entry for reference.
- Test system: MS2 coat protein
- protocol.summary: apparent KD of MS2 coat protein; higher = weaker reporter binding
- conditions: Eterna round: R107; input ligand: theophylline 20 uM
Report as a plain number; the unit nM is understood.

# count of solved cases: 5
| sequence.code | u | apparent KD of MS2 coat protein |
| --- | --- | --- |
| GGUUACUCUACGGCCGCCACUGUAAAGUAAAGAUUACUGUACAUGACAUGAGGAUCACCCAUGUACAGGACCGGGUAGUGUAACC [Tryptophan B 15] | nM | 46.3 |
| AAUAUAAGUGUAAUUAUAUUUAUAUCUGAUACCAGACUCUCAUGUGUCCCUUGGCAGCAGUUACAUGAGGAUCACCCAUGUAUUA [JR_Nu_SSTheophyA_Sub025] | nM | 67.6 |
| GGUUGAUGACAUGAGGAUCACCCAUGUAGGCGAGGACCGGUACGGCCGCCACUCGACAUGAGGAUCACCCAUGUCGGCGUCCGUG | nM | 19.9 |
| UUCAGCUAGUCGGCCGCCACUACCUGAGGAUCACCCUGGUAGGUCCACACUGCUUCGGCAGUGAGUAGGACCGGGACUAGCUGAG | nM | 25.2 |
| UUAAUCUUAUAUGAAAACAUAUAAGCAGAAGGAGCGUGAUAAAACACAGGUAGGUCGCUGAAGGGAACAUGAGGAUCACCCAUGU [AstrosSSArgA#4] | nM | 33.8 |

Reading of apparent KD of MS2 coat protein for UGUAUGUGAUGUGAUACCAGUCCAAUACUGGUAACAUGAGGAUCACCCAUGUAAUGAUGGGACCCUUGGCAGCACAUCGCAUACU [ThBS] with MS2 coat protein: 347
